# System: LK-2
# PROCEDURE SUMMARY: relative viability (nuclei count vs DMSO), 5 days (fraction); higher = more cells survive
# PARTICULARS: first compound 2 µM
MEASURED METRIC: relative viability
Could you respond with only the numeric value?

{"COMPOUND": "Cc1csc(=NC2CCCCC2)n1/N=C/c1ccc(O)c(O)c1O [MIM1] + Cc1cc(Nc2cc(N3CCN(C)CC3)nc(Sc3ccc(NC(=O)C4CC4)cc3)n2)n[nH]1 [Tozasertib] (partner 0.1 µM)", "relative viability": 0.161}

Note: attention shifts to another entry.
Prompt: Look up relative viability: CN1CCN(CCOc2cc(OC3CCOCC3)c3c(Nc4c(Cl)ccc5c4OCO5)ncnc3c2)CC1 [Saracatinib] + CC(=O)c1c(C)c2cnc(Nc3ccc(N4CCNCC4)cn3)nc2n(C2CCCC2)c1=O [Palbociclib] (partner 0.5 µM)
Response: 0.313

* * *

# Test system: UMC-11
# PROCEDURE SUMMARY: relative viability (nuclei count vs DMSO), 5 days (fraction); higher = more cells survive
# PARTICULARS: first compound 6.325 µM
met if relative viability is below 0.7. not met if not; exact matches included in not met.

Look over these answered cases.
{"COMPOUND": "Cc1csc(=NC2CCCCC2)n1/N=C/c1ccc(O)c(O)c1O [MIM1] + COc1cccc2cc(-c3nc([C@H]4CC[C@H](C(=O)O)CC4)n4ncnc(N)c34)[nH]c12 [OSI-027] (partner 0.5 µM)", "GROUP": "met"}
{"COMPOUND": "Cc1csc(=NC2CCCCC2)n1/N=C/c1ccc(O)c(O)c1O [MIM1] + CC(=O)Nc1cccc(-n2c(=O)n(C3CC3)c(=O)c3c(Nc4ccc(I)cc4F)n(C)c(=O)c(C)c32)c1 [Trametinib] (partner 0.02 µM)", "GROUP": "met"}
{"COMPOUND": "Cc1csc(=NC2CCCCC2)n1/N=C/c1ccc(O)c(O)c1O [MIM1] + Nc1nc2[nH]cc(CCc3ccc(C(=O)N[C@@H](CCC(=O)O)C(=O)O)cc3)c2c(=O)[nH]1 [Pemetrexed] (partner 0.2 µM)", "GROUP": "not met"}

Prompt: For Cc1csc(=NC2CCCCC2)n1/N=C/c1ccc(O)c(O)c1O [MIM1] + N=C(N)NC(=N)NCCc1ccccc1 [Phenformin] (partner 250 µM) , is the recorded relative viability below the cut-off of 0.7?
Response: met

* * *

// relative viability lookup, one value per entry
# Tested on: HCC-15
# PROCEDURE SUMMARY: relative viability (nuclei count vs DMSO), 5 days (fraction); higher = more cells survive
# PARTICULARS: first compound 2 µM
Could you respond with only the numeric value?

Before answering, review these 4 worked examples.
{"COMPOUND": "CN1CCN(CCOc2cc(OC3CCOCC3)c3c(Nc4c(Cl)ccc5c4OCO5)ncnc3c2)CC1 [Saracatinib] + Cc1nc(NC(=O)N2CCC[C@H]2C(N)=O)sc1-c1ccnc(C(C)(C)C(F)(F)F)c1 [Alpelisib] (partner 2 µM)", "relative viability": 0.759}
{"COMPOUND": "CN1CCN(CCOc2cc(OC3CCOCC3)c3c(Nc4c(Cl)ccc5c4OCO5)ncnc3c2)CC1 [Saracatinib] + CS(=O)(=O)CCNCc1ccc(-c2ccc3ncnc(Nc4ccc(OCc5cccc(F)c5)c(Cl)c4)c3c2)o1 [Lapatinib] (partner 2 µM)", "relative viability": 0.854}
{"COMPOUND": "CN1CCN(CCOc2cc(OC3CCOCC3)c3c(Nc4c(Cl)ccc5c4OCO5)ncnc3c2)CC1 [Saracatinib] + O=C(CCCCCCC(=O)Nc1ccccc1)NO [Vorinostat] (partner 1 µM)", "relative viability": 0.861}
{"COMPOUND": "Cc1csc(=NC2CCCCC2)n1/N=C/c1ccc(O)c(O)c1O [MIM1] + NC(=O)Nc1cc(-c2cccc(F)c2)sc1C(=O)N[C@H]1CCCNC1 [AZD7762] (partner 0.2 µM)", "relative viability": 1.23}

Note: attention shifts to another entry.
Prompt: Look up relative viability: CN1CCN(CCOc2cc(OC3CCOCC3)c3c(Nc4c(Cl)ccc5c4OCO5)ncnc3c2)CC1 [Saracatinib] + CCNC(=O)c1noc(-c2cc(C(C)C)c(O)cc2O)c1-c1ccc(CN2CCOCC2)cc1 [Luminespib] (partner 0.01 µM)
Response: 0.176
